target_desc: Muscarinic acetylcholine receptor M2 (Rattus norvegicus)
Sequence (P10980 whole entry): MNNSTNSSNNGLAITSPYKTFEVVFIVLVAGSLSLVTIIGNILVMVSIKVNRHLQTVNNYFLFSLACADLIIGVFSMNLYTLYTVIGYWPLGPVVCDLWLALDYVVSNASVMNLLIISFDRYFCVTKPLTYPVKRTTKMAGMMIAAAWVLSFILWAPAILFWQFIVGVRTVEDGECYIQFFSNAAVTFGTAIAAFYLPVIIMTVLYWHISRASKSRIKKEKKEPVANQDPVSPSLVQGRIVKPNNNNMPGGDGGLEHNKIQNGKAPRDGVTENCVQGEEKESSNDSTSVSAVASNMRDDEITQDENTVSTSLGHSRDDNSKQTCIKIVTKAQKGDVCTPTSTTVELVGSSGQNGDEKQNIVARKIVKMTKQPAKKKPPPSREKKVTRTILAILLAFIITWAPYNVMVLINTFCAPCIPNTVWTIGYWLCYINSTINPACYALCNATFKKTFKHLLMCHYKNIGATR
endpoint_label: Ki

[ask] What does the record list as Ki for C[C@@H]1[C@@H]2Cc3ccc(O)cc3[C@]1(C)CCN2CCNC1CCCCC1 ?
[reply] > 10 µM

[ask] How about this compound: C=CCN1CC[C@]2(C)c3cc(O)ccc3CC1[C@@H]2C (single isomer, unassigned; (+))
[reply] > 10 µM

[ask] Query C[C@@H]1[C@@H]2Cc3ccc(O)cc3[C@]1(C)CCN2CCN(C)C next
[reply] > 10 µM

###

assay_procedure: Compound was tested for its binding affinity towards PCP receptor in rat membranes in the presence of [3H]-(+)-SKF- 10,047
Format: cell membranes
endpoint_label: Ki

[ask] For the compound shown here, C[C@@H]1[C@@H]2Cc3ccc(O)cc3[C@]1(C)CCN2CCN1CCOCC1 , give the reported Ki.
[reply] > 1 µM

[ask] Also need C[C@@H]1[C@@H]2Cc3ccc(O)cc3[C@]1(C)CCN2CCN1CCCCC1 , thanks.
[reply] > 10 µM

[ask] Same thing, different compound: C[C@@H]1[C@@H]2Cc3ccc(O)cc3[C@]1(C)CCN2CCN1CCCC1
[reply] > 10 µM

[ask] Please do the same for C[C@@H]1[C@@H]2Cc3ccc(O)cc3[C@]1(C)CCN2CCNC1CCCCC1 as well.
[reply] > 10 µM
